Test system: Escherichia coli
experiment_notes: Antibacterial activity against Escherichia coli GC 4560 (imp) by micro-broth dilution method
Format: functional
Recorded MIC values for a group of compounds are listed next.
readout_type: MIC

chemical_structure	result
O=C(Nc1ccc(Cl)cc1)c1c(O)n(-c2ccc(Cl)cc2)n(-c2ccc(Cl)cc2)c1=O	2 µg/mL
COc1ccc(C(=O)c2c(O)n(-c3ccc(Cl)cc3)n(-c3ccc(Cl)cc3)c2=O)cc1	23 µg/mL
COc1ccc(NC(=O)c2c(O)n(-c3ccc(Cl)cc3)n(-c3ccc(Cl)cc3)c2=O)cc1	>128 µg/mL
O=C(c1ccc(Cl)cc1)c1c(O)n(-c2ccc(Cl)cc2)n(-c2ccc(Cl)cc2)c1=O	23 µg/mL
O=C(Nc1ccc(C(F)(F)F)cc1)c1c(O)n(-c2ccc(Cl)cc2)n(-c2ccc(Cl)cc2)c1=O	16 µg/mL

###

Test system: Escherichia coli
experiment_notes: Antibacterial activity against Escherichia coli GC 4560 (imp) by micro-broth dilution method
Assay type: functional
condition_parameters: Escherichia coli, GC 4560; read-out: MIC

chemical_structure	unit_spec	qualifying_sign	MIC
O=C(Nc1ccc(Br)cc1)c1c(O)n(-c2ccccc2)n(-c2ccccc2)c1=O	µg/mL	>	128
O=C(Nc1ccc(C(F)(F)F)cc1)c1c(O)n(-c2cccc(Cl)c2)n(-c2cccc(Cl)c2)c1=O	µg/mL	=	64
O=C(Nc1ccc(Cl)cc1)c1c(O)n(-c2ccccc2)n(-c2ccccc2)c1=O	µg/mL	>	128
O=C(c1ccc(C(F)(F)F)cc1)c1c(O)n(-c2ccc(Cl)cc2)n(-c2ccc(Cl)cc2)c1=O	µg/mL	=	16
O=C1CC(=O)N(c2ccc(Cl)cc2)N1c1ccc(Cl)cc1	µg/mL	=	16

###

Tested on: Escherichia coli
experiment_notes: Antibacterial activity against Escherichia coli GC 4560 (imp) by micro-broth dilution method
Assay type: functional
condition_parameters: Escherichia coli, GC 4560; read-out: MIC
readout_type: MIC

chemical_structure	result
Cc1ccc(NC(=O)c2c(O)n(-c3ccc(Cl)c(Cl)c3)n(-c3ccc(Cl)c(Cl)c3)c2=O)cc1	> 128 µg/mL
O=C1C(=C(O)c2ccc(Cl)c(Cl)c2)C(=O)N(c2ccc(Cl)cc2)N1c1ccc(Cl)cc1	49 µg/mL
O=C1CC(=O)N(c2ccc(F)cc2)N1c1ccc(F)cc1	64 µg/mL
O=C(Nc1ccc(Cl)c(Cl)c1)c1c(O)n(-c2ccc(Cl)c(Cl)c2)n(-c2ccc(Cl)c(Cl)c2)c1=O	> 128 µg/mL
COc1ccc(CC(=O)c2c(O)n(-c3ccc(Cl)cc3)n(-c3ccc(Cl)cc3)c2=O)cc1	> 94 µg/mL

###

Tested on: Escherichia coli
experiment_notes: Antibacterial activity against Escherichia coli GC 4560 (imp) by micro-broth dilution method
Type: functional
condition_parameters: Escherichia coli, GC 4560; read-out: MIC
readout_type: MIC

chemical_structure	readout_type	result
O=C(Nc1ccc(Cl)cc1)c1c(O)n(-c2cccc(Cl)c2)n(-c2cccc(Cl)c2)c1=O	MIC	> 128 µg/mL
O=C(c1ccc(OC(F)(F)F)cc1)c1c(O)n(-c2ccc(Cl)cc2)n(-c2ccc(Cl)cc2)c1=O	MIC	25.4 µg/mL
O=C(Nc1ccccc1)c1c(O)n(-c2ccccc2)n(-c2ccccc2)c1=O	MIC	> 128 µg/mL
O=C(c1ccc(-c2ccccc2)cc1)c1c(O)n(-c2ccc(Cl)cc2)n(-c2ccc(Cl)cc2)c1=O	MIC	> 100 µg/mL
O=C1CC(=O)N(c2cccc(Cl)c2)N1c1cccc(Cl)c1	MIC	200 µg/mL
O=C(c1cccs1)c1c(O)n(-c2ccc(Cl)cc2)n(-c2ccc(Cl)cc2)c1=O	MIC	21.6 µg/mL
O=C1CC(=O)N(c2ccc(Cl)c(Cl)c2)N1c1ccc(Cl)c(Cl)c1	MIC	32 µg/mL
CCCCOc1ccc(C(=O)c2c(O)n(-c3ccc(Cl)cc3)n(-c3ccc(Cl)cc3)c2=O)cc1	MIC	> 100 µg/mL

The reported numbers originate from ChEMBL document CHEMBL1137371.
